Test system: Streptococcus pyogenes
procedure_summary: Inhibition of Streptococcus pyogenes IdeS assessed as blockade of enzyme-mediated degradation of human polyclonal immunoglobulin G by SDS-PAGE method
Active and inactive are the calls of the source. No cut-off for these calls is given here.
assay_endpoint: Activity

In [3]: df
Out[3]:
                  compound_structure_string  assay_endpoint  result_value
0  Cc1ccc(S(=O)(=O)N[C@H](COS(=O)(=O)c2ccc(C)cc2)Cc2ccccc2)cc1        Activity      inactive
1  Cc1ccc(S(=O)(=O)N[C@H](COS(=O)(=O)c2ccc(C)cc2)C(C)C)cc1        Activity      inactive
2  Cc1ccc(S(=O)(=O)N[C@H](CC=O)Cc2ccccc2)cc1        Activity        Active
3  Cc1ccc(S(=O)(=O)N[C@H](CC=O)CCCCNC(=O)OC(C)(C)C)cc1        Activity        Active
4     CCCC[C@@H](CC=O)NS(=O)(=O)c1ccc(C)cc1        Activity        Active
5  CCCC[C@@H](COS(=O)(=O)c1ccc(C)cc1)NS(=O)(=O)c1ccc(C)cc1        Activity      inactive
6       CCCC[C@@H](CO)NS(=O)(=O)c1ccc(C)cc1        Activity      inactive
